Measured logP values are reported for all entries that follow.

COMPOUND	logP
COc1cc(CCN)cc(OC)c1OC(C)C	1.52
CCOc1cccc(NC(C)=O)c1	1.82
NCc1ccncc1	-0.38
O=C(N/N=C/c1cc[nH]c1)Nc1ccccc1	2.96
O=C1CN=C(c2ccccc2Cl)c2cc([N+](=O)[O-])ccc2N1	2.41
OC(c1ccc(Cl)cc1)(c1cncnc1)c1ccccc1Cl (centres undefined)	3.6
O=C1OC(c2ccccc2)c2ccccc21 (centres undefined)	2.64
CCOc1ccc([N+](=O)[O-])cc1	2.53
Cc1cccc2cc[nH]c12	2.56
CC1(C)OC(=O)c2ccccc21	1.73
OCCCOc1cccc(CN2CCCCC2)c1	2.78
CC(=O)c1ccccc1S(I)=C(N(C)C)N(C)C (centres undefined)	-0.81
O=[N+]([O-])C=Cc1cccc([N+](=O)[O-])c1	1.82
CN(C)C(N(C)C)=S(I)c1ccc(C#N)cc1 (centres undefined)	-1.13
c1cncc([C@@H]2CCCCN2)c1	0.97
Cc1ccccc1C=C[N+](=O)[O-]	2.63
O=C1C(=O)c2cccc3cccc1c23	1.95
Oc1ccc(C(F)(F)F)cc1	2.82
Nc1ccc(OC(=O)c2ccc(N)cc2O)cc1	2.04

* * *

Measured logP values are reported for all entries that follow.
RESULT TYPE: logP

COMPOUND	RESULT TYPE	NUMERIC READOUT
CCN(CC)N=Nc1ccc(C(N)=O)cc1	logP	2.26
CCCN(CCC)c1c([N+](=O)[O-])cc(C(F)(F)F)cc1[N+](=O)[O-]	logP	5.34
CCCCCCC(C)(C)c1ccc(C2CC(O)CCC2CCCCO)c(O)c1 (centres undefined)	logP	6.68
COC1OC(=O)c2ccccc21 (centres undefined)	logP	1
CCOc1ccccc1OCC	logP	2.42
Cn1cnc2c1c(=O)[nH]c(=O)n2C	logP	-0.78
O=S1(=O)OC(c2ccc(O)cc2)(c2ccc(O)cc2)c2ccccc21	logP	3.02
CC1OC(OC2C(O)CC(OC3C(O)CC(OC4CCC5(C)C(CCC6C5CCC5(C)C(C7COC(=O)C7)CCC65O)C4)OC3C)OC2C)CC(O)C1O (centres undefined)	logP	2.9
O=C(O)CSc1ccccc1	logP	1.88
Cc1cc(Br)cnc1NS(=O)(=O)c1ccc(N)cc1	logP	2.05
NC(=O)CCc1ccccc1	logP	0.91
Cc1cccnc1	logP	1.2
N#Cc1cccc([N+](=O)[O-])c1	logP	1.17
O=C(CF)NC(CO)C(O)c1ccc([N+](=O)[O-])cc1 (centres undefined)	logP	0.15
N#Cc1ccc(C#N)cc1	logP	0.93
CC#CC	logP	1.46
CCCN(CCC)C1CCOc2c(O)cccc21 (centres undefined)	logP	3.3
CCCN(CC)CCC	logP	2.68
CNC(=O)Oc1cccc2c1OC(C)(C)O2	logP	1.7

* * *

Measured logP values are reported for all entries that follow.
Peptide text beside a SMILES is read from it.
RESULT TYPE: logP

COMPOUND	NUMERIC READOUT
O=Cc1cccs1	1.02
CC12CCC3C(CCC4(O)CC(O)CCC34C=O)C1(O)CCC2C1=CC(=O)OC1 (stereo unspecified)	0.64
COc1cc(O)ccc1O	0.47
CN(C)C(=O)Oc1ccccc1[N+](=O)[O-]	1.35
CSc1nc(NC(C)C)nc(NC(C)C)n1	3.51
O=C(O)Cn1cccc1	0.7
CC(=NO)c1cccs1	1.81
CCSCC	1.95
Nc1ccc2[nH]ccc2c1	0.7
Cc1ccc(S(=O)(=O)N(C)N=O)cc1	0.58
CCNC(=O)CBr	0.34
CC(C(=O)O)c1ccc(-c2ccccc2)c(F)c1 (stereo unspecified)	4.16
CCOC(=O)c1ccoc1	1.78
CC(C)CC(=O)NC(N)=O	0.45
O=C(O)Cc1ccccc1Nc1cccc(Cl)c1Cl	4.86
CCNC(=O)c1ccc(S(N)(=O)=O)cc1	0.03
CCCSCS(=O)CC(CO)NC(=O)C=Cc1c(C)[nH]c(=O)[nH]c1=O (stereo unspecified)	-0.67
CCCCCCOC(=O)C(CC)C(CO)Cc1cncn1C (stereo unspecified)	2.71
CCCN1CCCN(CCC)C1=S	2.83
CCN1CCN(CC)C1=S	1.13
CON(C)C(=O)Nc1cccc([N+](=O)[O-])c1	1.64
Oc1ccc(O)cc1	0.59
c1ccc(N(c2ccccc2)c2ccccc2)cc1	5.74
CC(=O)CC(=O)C(C)(C)C	1.67
CC(C)=C1C(=O)OC2CC(C)C3C=CC(=O)C3(C)C(O)C12 (stereo unspecified)	1.47
O=C(Nc1ccccc1)N(Cc1ccc(Cl)cc1)C1CCCC1	4.82
CCOc1cccc(OC(=O)NC)c1	1.75
COC(C)=O	0.18
CCN(CC)C(=O)C1C2CC3C(OC(=O)C31)C2O (stereo unspecified)	0.15
c1ccc2c(c1)oc1ccccc12	4.12
O=c1cc[nH]c2cc(C(F)(F)F)ccc12	2.05
Nc1ccnc2c([N+](=O)[O-])cccc12	1.31
CC(=O)c1ccccc1N	1.63
O=c1nn[nH]c2ccccc12	0.83
CC(C)C(=O)Nc1ccccc1	1.95
CC(=NNC(=S)NNC(=S)N(C)C)c1ccccn1	1.25
Clc1cc(Cl)c(-c2c(Cl)cc(Cl)cc2Cl)c(Cl)c1	7.55
O=C(O)c1cccc2ccccc12	3.1
COc1ccccc1NCC(C)=O	1.49
O=S(=O)(O)c1cc(O)c2ccccc2c1	-0.18
CN(N=O)C(N)=O	-0.03
CCCCCC(C)=O	1.98
CC(=O)N[C@@H](Cc1ccc(O)cc1)C(=O)N[C@@H](CC(C)C)C(N)=O (Ac-Tyr-Leu-NH2)	0.32
ICCCc1ccccc1	3.9
COP(=O)(OC)Oc1ccc([N+](=O)[O-])cc1	1.33
CNCCOc1cc(C)c(O)cc1C(C)C	2.35
O=C(O)CCS	0.43
ClC(Cl)C(Cl)Cl	2.39
CCc1ccsc1	2.82
O=[N+]([O-])C=Cc1ccoc1	1.41
COP(=S)(OC)Oc1ccc(Cl)cc1C#N	3.41
Cc1cscn1	0.97
CCCOC(=O)c1ccc(N)cc1	2.43
Sc1ccccn1	-0.13
O=C(O)c1cc2ccccc2[nH]1	2.31
CCCCCCCC1(c2ccncc2)CCC(=O)NC1=O (stereo unspecified)	3.44
